- assayText: log p, octanol/water partition coefficient determined by reversed-phase HPLC
- Type: physicochemical
- conditionInfo: pH not stated
Readings of chromatographic logP for the listed molecules
experimentalEndpoint: chromatographic logP

[[record]]
molecule = "CC(C)COC(=O)CSCCC(F)=C(F)F [Example I-21]"
quantitativeresult = 3.74

[[record]]
molecule = "O=C(CSCCC(F)=C(F)F)NCc1ccc(Cl)cc1 [Example I-19]"
quantitativeresult = 2.94

[[record]]
molecule = "COC(=O)CSCCC(F)=C(F)F [Example I-20]"
quantitativeresult = 2.43

[[record]]
molecule = "CC(NC(=O)CSCCC(F)=C(F)F)c1ccccc1 (stereo not shown) [Example I-18]"
quantitativeresult = 2.77

